# System: Fibroblast
# protocol.text: Multiplex assay against human fibroblast
# Format: toxicity, cell-based
# condition.notes: 48 h, 10 µM, compound concentration 10 uM, replicate 1
readout.kind: Population Healthy Nuclei (%)
Report the value in % with no unit label.

For orientation, consider the following solved cases.
>>> print(df.to_string())
                                   compound  recorded_result
0  CCn1c(-c2nc3cc(C(=O)N4CCCC(N)C4)ccc3n2C)cc2ccccc21.Cl (stereo unspecified)               72
1  N[C@](CC1c2ccccc2Oc2ccccc21)(C(=O)O)[C@H]1C[C@@H]1C(=O)O               68

Consider the compound shown here: C=CCN1C[C@H](C(=O)N(CCCN(C)C)C(=O)NCC)C[C@@H]2c3cccc4[nH]cc(c34)C[C@H]21 [CABERGOLINE] What is its recorded Population Healthy Nuclei (%)? 68

Consider the compound shown here: COc1cc2nc(N3CCN(C(=O)c4ccco4)CC3)nc(N)c2cc1OC.Cl [PRAZOSIN HYDROCHLORIDE] What is its recorded Population Healthy Nuclei (%)? 68

Consider the compound shown here: `S=C(NCCCc1c[nH]cn1)NCCCN(Cc1ccc(Cl)c(Cl)c1)c1ccc(Br)cn1` What is its recorded Population Healthy Nuclei (%)? 59

Consider the compound shown here: O=c1nc2[nH]c3ccccc3nc-2c(=O)[nH]1 [ALLOXAZINE] What is its recorded Population Healthy Nuclei (%)? 61

Reference source for all entries: ChEMBL document CHEMBL5058577
